The entries below come with measured pKi values attached.
- test_target: ivacaftor metabolism in human liver microsomes (HLM)
- protocol_summary: IC50 and inhibition mechanism (Lineweaver-Burk, Ki, αKi) on ivacaftor metabolism in HLM
Remember the convention: pKi equals -log10 of concentration in molar.

COCCOC(=O)C1=C(C)NC(C)=C(C(=O)OC(C)C)C1c1cccc([N+](=O)[O-])c1 (centres unmarked) [Nimodipine] :: 5.23

Here's the next entry for you.
Ask: Look at this molecule and give its reported pKi. COC(=O)C1=C(C)NC(C)=C(C(=O)OCC(C)C)C1c1ccccc1[N+](=O)[O-] (centres unmarked) [Nisoldipine]
Reply: 5.41

---

- test_target: ivacaftor metabolism in human liver microsomes (HLM)
- protocol_summary: IC50 and inhibition mechanism (Lineweaver-Burk, Ki, αKi) on ivacaftor metabolism in HLM
- Format: in vitro ADME
- condition_set: ivacaftor 6.8 μM, listed as nisoldipine
pIC50: −log10 of the molar value.
experimental_readout: pIC50

Ask: Look at this molecule and give its reported pIC50. COC(=O)C1=C(C)NC(C)=C(C(=O)OCC(C)C)C1c1ccccc1[N+](=O)[O-] (stereo not shown)
Reply: > 5.00

---

- test_target: ivacaftor metabolism in rat liver microsomes (RLM)
- protocol_summary: IC50 and inhibition mechanism (Lineweaver-Burk, Ki, αKi) on ivacaftor metabolism in RLM
- Format: in vitro ADME
- condition_set: ivacaftor 8.8 μM, listed as nimodipine
pIC50: −log10 of the molar value.
experimental_readout: pIC50

Ask: Look at this molecule and give its reported pIC50. COCCOC(=O)C1=C(C)NC(C)=C(C(=O)OC(C)C)C1c1cccc([N+](=O)[O-])c1 (stereo not shown)
Reply: > 5.00

---

- test_target: ivacaftor metabolism in human liver microsomes (HLM)
- protocol_summary: IC50 and inhibition mechanism (Lineweaver-Burk, Ki, αKi) on ivacaftor metabolism in HLM
- Type: in vitro ADME
- condition_set: ivacaftor 6.8 μM
The entries below come with measured IC50 values attached.
Write down the numeric answer in µM and omit the unit.

Ask: Look at this compound and give its reported IC50. COCCOC(=O)C1=C(C)NC(C)=C(C(=O)OC(C)C)C1c1cccc([N+](=O)[O-])c1 (centres unmarked)
Reply: 7.15

Ask: Look at this compound and give its reported IC50. COC(=O)C1=C(C)NC(C)=C(C(=O)OCC(C)C)C1c1ccccc1[N+](=O)[O-] (centres unmarked)
Reply: 9.1

---

- test_target: ivacaftor metabolism in rat liver microsomes (RLM)
- protocol_summary: IC50 and inhibition mechanism (Lineweaver-Burk, Ki, αKi) on ivacaftor metabolism in RLM
- Type: in vitro ADME
- condition_set: ivacaftor 8.8 μM
The entries below come with measured pIC50 values attached.
Remember the convention: pIC50 equals -log10 of concentration in molar.

// known answers, use as guide
CCOC(=O)C1=C(C)NC(C)=C(C(=O)OC)C1c1cccc(Cl)c1Cl (stereo not shown) [Felodipine] :: 4.81
COC(=O)C1=C(C)NC(C)=C(C(=O)OCC(C)C)C1c1ccccc1[N+](=O)[O-] (stereo not shown) [Nisoldipine] :: 5.18
CCOC(=O)C1=C(C)NC(C)=C(C(=O)OCC)C1c1ccccc1/C=C/C(=O)OC(C)(C)C [Lacidipine] :: 5.66

Here's the next entry for you.
Ask: Could you share what pIC50 was measured for COCCOC(=O)C1=C(C)NC(C)=C(C(=O)OC(C)C)C1c1cccc([N+](=O)[O-])c1 (stereo not shown) [Nimodipine] , tested on ivacaftor metabolism in rat liver microsomes (RLM)?
Reply: 5.34

---

The entries below come with measured Metabolic rate (Mean ± SD, % of control) values attached.
- System: ivacaftor metabolism in rat liver microsomes (RLM)
- protocol_summary: Screening of 79 drugs (100 μM) for inhibition of ivacaftor metabolism in RLM incubation
- Assay type: in vitro ADME
- condition_set: each drug 100 μM, 0.3 mg/mL RLM
- Description: The supernatants were centrifuged at 100,000 × g for 1 h, and the pellets were resuspended with cold […] PBS. Protein concentrations were determined by Bradford Protein Assay Kit (Thermo Scientific, Waltham, MA, United States). This system was made up of 200 μL of incubation solution consisting of 0.3 mg/mL RLM or 0.4 mg/mL HLM, 1.0 mM NADPH, pH 7.4 PBS and ivacaftor. […] After centrifugation, 100 μL of the supernatant was quantified using UPLC-MS/MS. […]

// known answers, use as guide
N[C@@H](CC(=O)N1CCn2c(nnc2C(F)(F)F)C1)Cc1cc(F)c(F)cc1F [Sitagliptin] :: 97.11 ± 2.13 % of control
C=C1CC[C@@H]2[C@](C)(CO)[C@H](O)CC[C@@]2(C)[C@@H]1C/C=C1/C(=O)OC[C@H]1O [Andrographolide] :: 81.58 ± 1.22 % of control
COc1c(O)cc2c(c1O)[C@@H]1O[C@H](CO)[C@@H](O)[C@H](O)[C@H]1OC2=O [Bergenin] :: 142.63 ± 33.46 % of control
CCOc1ccc(Cc2cc([C@]34OC[C@](CO)(O3)[C@@H](O)[C@H](O)[C@H]4O)ccc2Cl)cc1 [PF-04971729] :: 92.72 ± 3.41 % of control

Ask: Look at this compound and give its reported Metabolic rate (Mean ± SD, % of control). COc1ccccc1OCCNCC(O)COc1cccc2[nH]c3ccccc3c12 (stereo not shown) [Carvedilol]
Reply: 12.87 ± 0.57 % of control

Ask: Look at this compound and give its reported Metabolic rate (Mean ± SD, % of control). COc1ccc([C@@H]2CC(=O)c3c(O)cc(O[C@@H]4O[C@H](CO[C@@H]5O[C@@H](C)[C@H](O)[C@@H](O)[C@H]5O)[C@@H](O)[C@H](O)[C@H]4O)cc3O2)cc1O [Hesperiden]
Reply: 104.17 ± 3.09 % of control

Ask: Look at this compound and give its reported Metabolic rate (Mean ± SD, % of control). [H]/N=C(/N)c1ccc(NCc2nc3cc(C(=O)N(CCC(=O)O)c4ccccn4)ccc3n2C)cc1 [Dabigatran]
Reply: 104.42 ± 27.66 % of control

---

The entries below come with measured Metabolic rate (Mean ± SD, % of control) values attached.
- Test system: ivacaftor metabolism in rat liver microsomes (RLM)
- protocol_summary: Screening of 79 drugs (100 μM) for inhibition of ivacaftor metabolism in RLM incubation
- Assay type: in vitro ADME
- condition_set: each drug 100 μM, 0.3 mg/mL RLM

// known answers, use as guide
COC(=O)Nc1c(N)nc(-c2nn(Cc3ccccc3F)c3ncc(F)cc23)nc1N [Vericiguat] :: 76.32 ± 1.42 % of control
CC(=O)Oc1cc2c(s1)CCN(C(C(=O)C1CC1)c1ccccc1F)C2 (centres unmarked) [Prasugrel] :: 31.93 ± 1.49 % of control
O=c1c(O)c(-c2cc(O)c(O)c(O)c2)oc2cc(O)cc(O)c12 [Myricetin] :: 2.38 ± 0.15 % of control
O=C1C[C@@H](c2ccc(O)cc2)Oc2cc(O)cc(O)c21 [Naringenin] :: 42.57 ± 2.14 % of control

Ask: Look at this compound and give its reported Metabolic rate (Mean ± SD, % of control). O=C1CCc2cc(OCCCCc3nnnn3C3CCCCC3)ccc2N1 [Cilostazol]
Reply: 13.12 ± 0.36 % of control

Ask: Look at this compound and give its reported Metabolic rate (Mean ± SD, % of control). O=c1cc(-c2ccccc2)oc2cc(O)c(O)c(O)c12 [Baicalein]
Reply: 15.24 ± 0.00 % of control

Ask: Look at this compound and give its reported Metabolic rate (Mean ± SD, % of control). O=c1c(O)c(-c2ccc(O)c(O)c2)oc2cc(O)cc(O)c12 [Quercetin]
Reply: 57.86 ± 5.58 % of control

Ask: Look at this compound and give its reported Metabolic rate (Mean ± SD, % of control). C[C@@H]1O[C@@H](OC[C@H]2O[C@@H](Oc3c(-c4ccc(O)c(O)c4)oc4cc(O)cc(O)c4c3=O)[C@H](O)[C@@H](O)[C@@H]2O)[C@H](O)[C@H](O)[C@H]1O [Rutin]
Reply: 91.63 ± 0.31 % of control

---

- test_target: ivacaftor metabolism in rat liver microsomes (RLM)
- protocol_summary: IC50 and inhibition mechanism (Lineweaver-Burk, Ki, αKi) on ivacaftor metabolism in RLM
- Format: in vitro ADME
- condition_set: ivacaftor 8.8 μM, listed as nisoldipine
experimental_readout: IC50

Ask: Look at this molecule and give its reported IC50. COC(=O)C1=C(C)NC(C)=C(C(=O)OCC(C)C)C1c1ccccc1[N+](=O)[O-] (stereo not shown)
Reply: < 10 µM

---

- protocol_summary: Pharmacokinetics of ivacaftor and M1 in Sprague-Dawley rats with or without nisoldipine or nimodipine
- Format: in vivo
- condition_set: male, rat, plasma, po, ivacaftor 10 mg/kg gavage, nisoldipine 1 mg/kg or nimodipine 10 mg/kg 30 min before, n = 4
experimental_readout: Cmax (ng/mL)
Write down the numeric answer in ng/mL and omit the unit.

Ask: Look at this molecule and give its reported Cmax. CC(C)(C)c1cc(C(C)(C)C)c(NC(=O)c2c[nH]c3ccccc3c2=O)cc1O [Ivacaftor]
Reply: 676
